Assay: TOX21_p53_BLA_p2_viability: Viability Assessment in the Tox21 HCT-116 p53 Agonism Beta-lactamase Assay, Phase 2 (AID 2283591);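 note: compound exposure lasted 16 h at 37 °C; actives lower the ATP signal meaning cytotoxicity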
Inconclusive results are not listed. Activity calls are given as the source filed them. Rule for the calls: active = hit-call score of the fitted dose curve at least 0.9, where 1 is the maximum; inconclusive = response in the unintended direction; inactive = score below 0.9.
Your reply should match one of these outcome classes. true = active, false = inactive

In [3]: df
Out[3]:
                      molecule  assigned_category
0  Oc1c(Cl)c(Cl)c(Cl)c(Cl)c1Cl              false
1               Clc1ccc(Cl)cc1              false

## Task What call does the record list for Cc1cc(O)ccc1Cl ?
## Result false

## Task How about this molecule: C1CC2OC2CC1C1CO1 (configuration not stated)
## Result false

## Task How about this molecule: C[C@]12CCC(=O)C=C1CC[C@@H]1[C@@H]2CC[C@]2(C)C(=O)CC[C@@H]12
## Result false

## Task How about this molecule: Oc1ccc(Cl)cc1Cl
## Result false

## Task How about this molecule: O=C(O)C(F)(F)C(F)(F)C(F)(F)C(F)(F)C(F)(F)C(F)(F)C(F)(F)C(F)(F)C(F)(F)F
## Result false

## Task How about this molecule: c1cc2ccc3cccc4ccc(c1)c2c34
## Result false

* * *

Read-out: solute carrier (SLCO1B1), SLCO1B1 (gene 10599)
Assay: LTEA_HepaRG_SLCO1B1: Life Technologies and Expression Analysis (LTEA) Assay for solute carrier (SLCO1B1) using HepaRG (AID 2283530)
Conditions: mRNA level, 48 h; actives raise or lower the signal
Activity calls are given as the source filed them. The calls were made as follows: active = hit-call score of the fitted dose curve at least 0.9, where 1 is the maximum; inactive = score below 0.9.
Your reply should match one of these outcome classes. T for active, F for inactive

>>> df
                                   compound  assigned_category
0                     Cc1ccccc1[N+](=O)[O-]                  F
1                                 C=CC(N)=O                  F
2                       C=CC(=O)NCNC(=O)C=C                  F
3       O=C(N[C@H]1CN2CCC1CC2)c1cc2ccoc2cn1                  F
4  Clc1ccc(C(c2ccccc2Cl)C(Cl)(Cl)Cl)cc1 (centres undefined)                  F

## Task What call does the record list for Oc1c(Cl)c(Cl)c(Cl)c(Cl)c1Cl ?
## Result T

## Task How about this compound: Cc1cc(-c2ccc(N)c(C)c2)ccc1N
## Result F

## Task How about this compound: CCC(C)(c1ccc(O)cc1)c1ccc(O)cc1
## Result F

## Task How about this compound: CCC(C)c1cc([N+](=O)[O-])cc([N+](=O)[O-])c1O (centres undefined)
## Result T

## Task How about this compound: Clc1ccc(Cl)cc1
## Result F

## Task How about this compound: Cc1cc2c3c(c1)C(c1ccccc1)=N[C@@H](NC(=O)c1ccncc1)C(=O)N3CC2
## Result F

## Task How about this compound: C[C@]12CCC(=O)C=C1CC[C@@H]1[C@@H]2CC[C@]2(C)C(=O)CC[C@@H]12
## Result F

## Task How about this compound: Cc1ccc(O)c(C)c1
## Result F

## Task How about this compound: c1cc2ccc3cccc4ccc(c1)c2c34
## Result F
